Consider the following compounds; for each one, report its pIC50.
- System: LS-411N
- measurement protocol: cells
- Type: functional, cell-based, Homo sapiens
- experimental setup: Homo sapiens, LS-411N
Answers are plain numbers, as −log10 of the molar value.

compound=CC(=O)O[C@@]12CO[C@@H]1C[C@H](O)[C@@]1(C)C(=O)[C@H](O)C3=C(C)[C@@H](OC(=O)[C@H](O)[C@@H](NC(=O)OC(C)(C)C)c4ccccc4)C[C@@](O)([C@@H](OC(=O)c4ccccc4)[C@H]21)C3(C)C system_under_test=LS-411N val=8.50

Give pIC50 for each listed item.
1. CCc1nc(N)nc(N)c1-c1ccc(Cl)cc1
2. C=CCc1cccc(/C=N/NC(=O)CN2CCN(Cc3ccccc3)CC2)c1O
3. CN(Cc1cnc2nc(N)nc(N)c2n1)c1ccc(C(=O)N[C@@H](CCC(=O)O)C(=O)O)cc1 [METHOTREXATE]

[reply]
1: 6.08; 2: 5.68; 3: 6.93

---

- Tested on: MMAC-SF;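 further: growth inhibition of human MMAC-SF cells, read out with a cell viability assay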
- measurement protocol: cells
- Type: functional, cell-based, Homo sapiens
- experimental setup: Homo sapiens, MMAC-SF
- Description: SANGER: Inhibition of human MMAC-SF cell growth in a cell viability assay.
pIC50: −log10 of the molar value.
assay metric: pIC50

compound="O=c1cc(-c2cccc3c2Sc2ccccc2S3)oc(N2CCOCC2)c1 [KU-55933]" system_under_test=MMAC-SF assay_metric=pIC50 val="< 5.00"

List the reported pIC50 of each compound below.
1. O=C1N=C(NCc2cccs2)S/C1=C\c1ccc2ncccc2c1
2. Nc1ccn([C@@H]2O[C@H](CO)[C@@H](O)[C@@H]2O)c(=O)n1 [CYTARABINE]
3. C=CCc1cccc(/C=N/NC(=O)CN2CCN(Cc3ccccc3)CC2)c1O [PAC-1]

[reply]
["< 5.30", "< 5.70", "< 5.59"]

For every item below, please supply its pIC50.
1. CCC1=C[C@@H]2CN(C1)Cc1c([nH]c3ccccc13)[C@@](C(=O)OC)(c1cc3c(cc1OC)N(C)[C@H]1[C@@](O)(C(=O)OC)[C@H](OC(C)=O)[C@]4(CC)C=CCN5CC[C@]31[C@@H]54)C2 [VINORELBINE]
2. CNC(=O)c1cc(Oc2ccc(NC(=O)Nc3ccc(Cl)c(C(F)(F)F)c3)cc2)ccn1 [SORAFENIB]
3. COc1ccc(C2=N[C@@H](c3ccc(Cl)cc3)[C@@H](c3ccc(Cl)cc3)N2C(=O)N2CCNC(=O)C2)c(OC(C)C)c1 [NUTLIN-3]

[reply]
1. 7.69
2. < 5.40
3. < 5.10

---

Task for the reader: assign each of the following compounds its reported pIC50.
- Tested on: KYSE-410;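 further: growth inhibition of KYSE-410 cells, measured through a cell viability readout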
- measurement protocol: cells
- Type: functional, cell-based, Homo sapiens
- experimental setup: Homo sapiens, KYSE-410
- Description: SANGER: Inhibition of human KYSE-410 cell growth in a cell viability assay.
Give bare numbers, as −log10 of the molar value.

Some compounds with recorded pIC50:
compound="COc1cc([C@@H]2c3cc4c(cc3[C@@H](O[C@@H]3O[C@@H]5CO[C@@H](C)O[C@H]5[C@H](O)[C@H]3O)[C@H]3COC(=O)[C@H]23)OCO4)cc(OC)c1O [ETOPOSIDE]" val=4.89
compound="C=CCc1cccc(/C=N/NC(=O)CN2CCN(Cc3ccccc3)CC2)c1O [PAC-1]" val=5.93

[ask] Consider the compound COc1ccc(-c2ccc3c(N4CCOC[C@@H]4C)nc(N4CCOC[C@@H]4C)nc3n2)cc1CO [AZD-8055] . State its measured pIC50.
[reply] 5.90

Just for reference, ChEMBL document CHEMBL1201861 is where these values come from.
